Reference source for all entries: patent US7553967B2

molecular target: HIV Reverse transcriptase (RT) 66/p51 (Human immunodeficiency virus type 1 group M subtype B, UniProt P04585); construct: HIV Reverse transcriptase (RT) 66/p51; experiment: RNA dependent DNA polymerase (RDDP) activity of HIV RT, 33P-TTP incorporation on polyrA-oligodT12-18, filter plate
resultType: IC50

Challenge: Need IC50 of Cc1cn([C@H]2C[C@H](N=[N+]=[N-])[C@@H](CO)O2)c(=O)[nH]c1=O [AZT] , thanks.
Response given: < 200 nM
